Target: T1, Extracellular domain (ECD) of the canine IL-4 receptor alpha-V5 epitope-AviTag-His Tag (canine)
T1 construct: monomeric form isolated by size exclusion; also called canine IL-4RA-V5-Avi-His; canine IL-4RA
T1 chain: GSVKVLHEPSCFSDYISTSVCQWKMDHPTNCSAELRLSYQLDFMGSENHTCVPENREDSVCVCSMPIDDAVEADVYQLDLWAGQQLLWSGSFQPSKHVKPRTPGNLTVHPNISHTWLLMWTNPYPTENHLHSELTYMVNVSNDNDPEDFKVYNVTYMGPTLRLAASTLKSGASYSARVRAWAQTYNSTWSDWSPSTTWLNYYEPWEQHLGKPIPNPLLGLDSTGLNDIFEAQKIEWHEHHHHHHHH
Assay: SPR, Fab-SASA captured on BSA;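 further: biacore T200 SPR, Fab-SASA variants from E. coli conditioned medium captured on BSA-coated CM5 chip, canine IL-4RA injected 120 s then 420 s dissociation, 1:1 model fit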
readout-type: Kd (nM)
Give a bare numeral; the unit nM is implied.

Query :: What Kd value was documented for this binder, TB640_005 Fab-SASA VL-G96P (Fab, V domains shown, not shown: SASA tag then His-tag) VH: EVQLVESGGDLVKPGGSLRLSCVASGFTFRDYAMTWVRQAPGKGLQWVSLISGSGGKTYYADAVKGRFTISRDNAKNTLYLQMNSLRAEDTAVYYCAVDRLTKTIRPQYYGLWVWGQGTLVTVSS VL: DIVMTQTPLSLSVSPGETASISCRSSQSLLYSIGYNYLDWYLQKPGQSPQGLIYLGSKRASGVPDRFSGSGSGTDFTLRISRVEANDTGVYYCMQPLQSPLTFGQGTKLEIKR ?
Result :: 3.27

Query :: What Kd value was documented for this binder, TB640_005 Fab-SASA VH-V114G (Fab, V domains shown, not shown: SASA tag then His-tag) VH: EVQLVESGGDLVKPGGSLRLSCVASGFTFRDYAMTWVRQAPGKGLQWVSLISGSGGKTYYADAVKGRFTISRDNAKNTLYLQMNSLRAEDTAVYYCAVDRLTKTIRPQYYGLWGWGQGTLVTVSS VL: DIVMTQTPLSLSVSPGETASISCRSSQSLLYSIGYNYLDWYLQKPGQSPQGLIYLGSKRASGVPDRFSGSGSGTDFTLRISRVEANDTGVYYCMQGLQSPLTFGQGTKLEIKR ?
Result :: 3.5

Query :: What Kd value was documented for this binder, TB640_005 Fab-SASA VH-K103I (Fab, V domains shown, not shown: SASA tag then His-tag) VH: EVQLVESGGDLVKPGGSLRLSCVASGFTFRDYAMTWVRQAPGKGLQWVSLISGSGGKTYYADAVKGRFTISRDNAKNTLYLQMNSLRAEDTAVYYCAVDRLTITIRPQYYGLWVWGQGTLVTVSS VL: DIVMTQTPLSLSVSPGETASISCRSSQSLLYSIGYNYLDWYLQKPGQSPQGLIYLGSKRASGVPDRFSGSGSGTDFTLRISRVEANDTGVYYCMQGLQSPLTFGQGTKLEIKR ?
Result :: 18.6

Query :: What Kd value was documented for this binder, TB640_005 Fab-SASA VL-Y35M (Fab, V domains shown, not shown: SASA tag then His-tag) VH: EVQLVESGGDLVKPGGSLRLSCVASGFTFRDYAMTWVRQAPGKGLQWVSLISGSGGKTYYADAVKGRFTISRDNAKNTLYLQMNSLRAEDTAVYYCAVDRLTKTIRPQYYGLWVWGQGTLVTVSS VL: DIVMTQTPLSLSVSPGETASISCRSSQSLLYSIGMNYLDWYLQKPGQSPQGLIYLGSKRASGVPDRFSGSGSGTDFTLRISRVEANDTGVYYCMQGLQSPLTFGQGTKLEIKR ?
Result :: 8.34

Query :: What Kd value was documented for this binder, TB640_005 Fab-SASA VH-L101K (Fab, V domains shown, not shown: SASA tag then His-tag) VH: EVQLVESGGDLVKPGGSLRLSCVASGFTFRDYAMTWVRQAPGKGLQWVSLISGSGGKTYYADAVKGRFTISRDNAKNTLYLQMNSLRAEDTAVYYCAVDRKTKTIRPQYYGLWVWGQGTLVTVSS VL: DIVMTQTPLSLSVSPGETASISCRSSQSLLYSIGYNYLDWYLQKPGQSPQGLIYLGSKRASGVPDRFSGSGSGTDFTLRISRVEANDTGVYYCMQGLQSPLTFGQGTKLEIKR ?
Result :: 7.1
